Target: CCR4 receptor (Homo sapiens, UniProt P51679)
Construct: beta-galactosidase enzyme-fragment tag (receptor modification for beta-arrestin complementation); expressed in transfected cells; host or cells: CHO-K1
Assay: CCR4 antagonist activity in beta-arrestin cellular assay (PathHunter chemiluminescence)
Assay type: cell-based
Settings: CHO-K1 cells expressing CCR4; 30 min pre-incubation; CCL22 challenge at EC80 (15 nM) for 90 minutes; read-out: Potency (CCR4 antagonist IC50 in the β-arrestin assay)
pIC50: −log10 of the molar value.
Each entry below carries its recorded pIC50.

Solved entries (count: 2):
compound	pIC50
Cc1nc(N2CCC(C3CCCN(C4CC(C(=O)O)C4)C3)CC2)nc(N[C@H](C)c2ccc(Cl)cc2Cl)c1Cl (stereo partly drawn) [Example 13]	> 6.70
C[C@@H](Nc1nc(N2CCC(C3CCCCN3)C2)ncc1Cl)c1ccc(Cl)cc1Cl (mixture of isomers) [Example 8]	> 6.70

Recorded pIC50 of Cc1nc(N2CCC(C3CCCN(C(C)C(=O)O)C3)CC2)nc(N[C@H](C)c2ccc(Cl)cc2Cl)c1Cl (stereo partly drawn) [Example 14] , please.
> 6.70

----------
Target: CCR4 receptor (Homo sapiens, UniProt P51679)
Construct: beta-galactosidase enzyme-fragment tag (receptor modification for beta-arrestin complementation)
Sequence (P51679 1-360): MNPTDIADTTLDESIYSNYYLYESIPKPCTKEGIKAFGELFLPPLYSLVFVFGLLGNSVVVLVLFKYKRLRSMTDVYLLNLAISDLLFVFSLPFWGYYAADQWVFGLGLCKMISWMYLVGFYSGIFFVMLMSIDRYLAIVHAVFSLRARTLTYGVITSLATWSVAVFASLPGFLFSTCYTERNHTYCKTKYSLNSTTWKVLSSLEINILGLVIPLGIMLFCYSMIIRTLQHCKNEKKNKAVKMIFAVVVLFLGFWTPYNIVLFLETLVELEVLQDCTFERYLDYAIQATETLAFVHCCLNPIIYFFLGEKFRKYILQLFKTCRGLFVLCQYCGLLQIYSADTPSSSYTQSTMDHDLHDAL
Experiment: CCR4 antagonist activity in beta-arrestin cellular assay (PathHunter chemiluminescence)
Settings: CHO-K1 cells expressing CCR4; 30 min pre-incubation; CCL22 challenge at EC80 (15 nM) for 90 minutes; read-out: Potency (CCR4 antagonist IC50 in the β-arrestin assay)
pIC50: −log10 of the molar value.
result-type: pIC50

Solved entries (count: 5):
compound	result-type	val
C[C@@H](Nc1nc(N2CCC(C3CCCN(C4CC(C)(C(=O)O)C4)C3)CC2)ncc1Cl)c1ccc(Cl)cc1Cl (mixture of isomers)	pIC50	> 6.70
Cc1nc(N2CCC(C3CCCCN3C3CC(C)(C(=O)O)C3)C2)nc(N[C@H](C)c2ccc(Cl)cc2Cl)c1Cl (some centres unmarked)	pIC50	6.30 to 6.70
CC(C(=O)O)N1CCCC(C2CCN(c3ncc(Cl)c(N[C@H](C)c4ccc(Cl)cc4Cl)n3)CC2)C1 (some centres unmarked)	pIC50	> 6.70
Cc1nc(N2CCC(C3CCCN(C4CC(C)(C(=O)O)C4)C3)CC2)nc(N[C@H](C)c2ccc(Cl)cc2Cl)c1Cl (some centres unmarked)	pIC50	> 6.70
Cc1nc(N2CCC(C3CCCN(CCC(=O)O)C3)CC2)nc(N[C@H](C)c2ccc(Cl)cc2Cl)c1Cl (some centres unmarked)	pIC50	> 6.70

Recorded pIC50 of Cc1nc(N2CCC(C3CCCN(C4CC(C)(C(=O)O)C4)C3)C2)nc(N[C@H](C)c2ccc(Cl)cc2Cl)c1Cl (some centres unmarked) , please.
> 6.70

Recorded pIC50 of Cc1nc(N2CCC(C3CCCCN3)C2)nc(N[C@H](C)c2ccc(Cl)cc2Cl)c1Cl (mixture of isomers) , please.
6.30 to 6.70

Recorded pIC50 of C[C@@H](Nc1nc(N2CCC(C3CCCN(CCC(=O)O)C3)CC2)ncc1Cl)c1ccc(Cl)cc1Cl (some centres unmarked) , please.
> 6.70

Recorded pIC50 of Cc1nc(N2CCC(C3CN(C4CC(C)(C(=O)O)C4)C3)C2)nc(N[C@H](C)c2ccc(Cl)cc2Cl)c1Cl (mixture of isomers) , please.
< 6.30

Recorded pIC50 of C[C@@H](Nc1nc(N2CCC(C3CCN(C4CC(C)(C(=O)O)C4)C3)C2)ncc1Cl)c1ccc(Cl)cc1Cl (some centres unmarked) , please.
6.30 to 6.70

Recorded pIC50 of C[C@@H](Nc1nc(N2CCC(C3CCCCN3C3CC(C)(C(=O)O)C3)C2)ncc1Cl)c1ccc(Cl)cc1Cl (some centres unmarked) , please.
> 6.70

Recorded pIC50 of C[C@@H](Nc1nc(N2CCC(C3CCCN(C4CC(C(=O)O)C4)C3)CC2)ncc1Cl)c1ccc(Cl)cc1Cl (some centres unmarked) , please.
> 6.70

Recorded pIC50 of C[C@@H](Nc1nc(N2CCC(C3CCCN(C4CC(C)(C(=O)O)C4)C3)C2)ncc1Cl)c1ccc(Cl)cc1Cl (some centres unmarked) , please.
> 6.70

Recorded pIC50 of Cc1nc(N2CCC(C3CCN(C4CC(C)(C(=O)O)C4)C3)C2)nc(N[C@H](C)c2ccc(Cl)cc2Cl)c1Cl (some centres unmarked) , please.
6.30 to 6.70
